biological target: RIPK3 (Homo sapiens (Human), UniProt Q9Y572); experiment: RIPK3 HTRF Kinase Assay; format: binding; conditions: RIPK3 1 nM; HTRF probe 23 nM; 60 min at room temperature; read-out: IC50 for Inhibition of RIPK3
Sequence (Q9Y572 whole entry, species assumed): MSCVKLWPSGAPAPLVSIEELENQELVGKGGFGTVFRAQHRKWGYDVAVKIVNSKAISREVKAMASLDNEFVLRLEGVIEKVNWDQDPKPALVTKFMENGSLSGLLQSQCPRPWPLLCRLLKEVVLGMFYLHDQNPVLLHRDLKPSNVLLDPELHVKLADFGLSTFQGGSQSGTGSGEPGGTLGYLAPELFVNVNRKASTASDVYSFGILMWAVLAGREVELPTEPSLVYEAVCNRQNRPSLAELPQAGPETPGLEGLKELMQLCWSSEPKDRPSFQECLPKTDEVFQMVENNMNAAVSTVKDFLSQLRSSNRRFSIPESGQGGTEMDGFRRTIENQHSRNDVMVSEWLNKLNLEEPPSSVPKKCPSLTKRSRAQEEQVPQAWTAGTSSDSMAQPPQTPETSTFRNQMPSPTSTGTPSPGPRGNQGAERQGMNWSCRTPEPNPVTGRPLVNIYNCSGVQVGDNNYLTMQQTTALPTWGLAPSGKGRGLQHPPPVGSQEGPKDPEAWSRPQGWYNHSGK
pIC50: −log10 of the molar value.
Measured pIC50 values are reported for all entries that follow.
PROPERTY: pIC50

[[record]]
entry_smiles = "CCNC(=O)Nc1cc(-c2c(-c3ccc(F)cc3)c3c(n2CC2CCOCC2)CCNC3=O)ccn1"
property = "pIC50"
result_value = "4.82 to 7.00"

[[record]]
entry_smiles = "O=C(Nc1cc(-c2c(-c3ccc(F)cc3)c3c(n2CC2CCOCC2)CCNC3=O)ccn1)c1ccccc1"
property = "pIC50"
result_value = "4.82 to 7.00"

[[record]]
entry_smiles = "Cc1nc(-c2ccc(Cn3c4c(c(-c5ccc(F)cc5)c3-c3ccncc3)C(=O)NCC4)c(F)c2)no1"
property = "pIC50"
result_value = "> 7.52"

[[record]]
entry_smiles = "O=C1NCCc2c1c(-c1ccc(F)cc1)c(-c1ccnc(NC(=O)C3CC3)c1)n2CC1CCOCC1"
property = "pIC50"
result_value = "7.00 to 7.51"

[[record]]
entry_smiles = "CC(C)C(=O)Nc1cc(-c2c(-c3ccc(F)cc3)c3c(n2CC2CCOCC2)CCNC3=O)ccn1"
property = "pIC50"
result_value = "4.82 to 7.00"

[[record]]
entry_smiles = "O=C1NCCc2c1c(-c1ccc(F)cc1)c(-c1ccncc1)n2Cc1ccc(F)cc1"
property = "pIC50"
result_value = "> 7.52"

[[record]]
entry_smiles = "O=C1NCCc2c1c(-c1ccc(F)cc1)c(-c1ccncc1)n2Cc1nnc(C2CC2)s1"
property = "pIC50"
result_value = "4.82 to 7.00"

[[record]]
entry_smiles = "N#Cc1cc(F)ccc1Cn1c2c(c(-c3cccc(OC(F)(F)F)c3)c1-c1ccncc1)C(=O)NCC2"
property = "pIC50"
result_value = "7.00 to 7.51"

[[record]]
entry_smiles = "N#Cc1cc(F)ccc1Cn1c2c(c(-c3ccc(OCc4ccccc4)cc3)c1-c1ccncc1)C(=O)NCC2"
property = "pIC50"
result_value = "4.82 to 7.00"

[[record]]
entry_smiles = "O=C1NCCc2c1c(-c1ccc(F)cc1)c(-c1ccnc(NCCO)c1)n2Cc1ccc(C(F)(F)F)cc1F"
property = "pIC50"
result_value = "7.00 to 7.51"

[[record]]
entry_smiles = "Cc1cc(Cn2c3c(c(-c4ccc(F)cc4)c2-c2cn[nH]c2)C(=O)NCC3)n(C)n1"
property = "pIC50"
result_value = "4.82 to 7.00"

[[record]]
entry_smiles = "Cc1cc(Cn2c3c(c(-c4ccc(F)cc4)c2-c2ccncc2F)C(=O)NCC3)n(C)n1"
property = "pIC50"
result_value = "7.00 to 7.51"

[[record]]
entry_smiles = "O=C1NCCc2c1c(-c1ccc(F)cc1)c(-c1ccncc1)n2Cc1c(F)cc(F)cc1F"
property = "pIC50"
result_value = "> 7.52"

[[record]]
entry_smiles = "COc1ccc(-c2c3c(n(CC4CCOCC4)c2-c2ccncc2)CCNC3=O)cn1"
property = "pIC50"
result_value = "4.82 to 7.00"

[[record]]
entry_smiles = "Cc1cc(Cn2c3c(c(-c4cccc(NC(=O)Cc5ccccc5)c4)c2-c2ccncc2)C(=O)NCC3)n(C)n1"
property = "pIC50"
result_value = "4.82 to 7.00"

[[record]]
entry_smiles = "CNc1cc(-c2c(-c3ccc(F)cc3)c3c(n2Cc2ccc(C(F)(F)F)cc2F)CCNC3=O)ccn1"
property = "pIC50"
result_value = "4.82 to 7.00"

[[record]]
entry_smiles = "CCC(=O)Nc1cc(-c2c(-c3ccc(F)cc3)c3c(=O)[nH]ccc3n2Cc2ccc(C(F)(F)F)cc2F)ccn1"
property = "pIC50"
result_value = "> 7.52"

[[record]]
entry_smiles = "O=C1NCCc2c1c(-c1ccc(F)cc1)c(-c1ccncc1)n2CC1CCOCC1"
property = "pIC50"
result_value = "4.82 to 7.00"

[[record]]
entry_smiles = "Cc1n[nH]cc1-c1c(-c2ccc(F)cc2)c2c(n1Cc1ccc(F)cc1C#N)CCNC2=O"
property = "pIC50"
result_value = "4.82 to 7.00"

[[record]]
entry_smiles = "CCCC(=O)Nc1cc(-c2c(-c3ccc(F)cc3)c3c(n2CC2CCOCC2)CCNC3=O)ccn1"
property = "pIC50"
result_value = "4.82 to 7.00"

[[record]]
entry_smiles = "COc1ccc(-c2c3c(n(Cc4ccc(F)cc4C#N)c2-c2ccncc2)CCNC3=O)cc1"
property = "pIC50"
result_value = "7.00 to 7.51"

[[record]]
entry_smiles = "CC(=O)Nc1cccc(-c2c3c(n(CC4CCOCC4)c2-c2ccncc2)CCNC3=O)c1"
property = "pIC50"
result_value = "4.82 to 7.00"

[[record]]
entry_smiles = "O=C1NCCc2c1c(-c1ccc(F)cc1)c(-c1ccnc(NC(=O)C3CC3)c1)n2Cc1ccc(C(F)(F)F)cc1F"
property = "pIC50"
result_value = "> 7.52"

[[record]]
entry_smiles = "Cc1ccc(-c2c3c(n(Cc4ccc(Cl)cc4F)c2-c2ccncc2)CCNC3=O)s1"
property = "pIC50"
result_value = "> 7.52"

[[record]]
entry_smiles = "N#Cc1cccc(-c2c3c(n(Cc4ccc(F)cc4C#N)c2-c2ccncc2)CCNC3=O)c1"
property = "pIC50"
result_value = "7.00 to 7.51"

[[record]]
entry_smiles = "O=C1NCCc2c1c(-c1ccc(F)cc1)c(-c1ccncc1)n2CCCO"
property = "pIC50"
result_value = "7.00 to 7.51"

[[record]]
entry_smiles = "N#Cc1cc(F)ccc1Cn1c2c(c(-c3cccc(S(N)(=O)=O)c3)c1-c1ccncc1)C(=O)NCC2"
property = "pIC50"
result_value = "4.82 to 7.00"

[[record]]
entry_smiles = "N#Cc1cc(F)ccc1Cn1c2c(c(-c3cccc(CO)c3)c1-c1ccncc1)C(=O)NCC2"
property = "pIC50"
result_value = "> 7.52"

[[record]]
entry_smiles = "O=C1NCCc2c1c(-c1ccc(F)cc1)c(-c1ccncc1)n2Cc1ccc(C(F)(F)F)cc1"
property = "pIC50"
result_value = "7.00 to 7.51"

[[record]]
entry_smiles = "N#Cc1cc(F)ccc1Cn1c2c(c(-c3cc(Cl)cc(Cl)c3)c1-c1ccncc1)C(=O)NCC2"
property = "pIC50"
result_value = "> 7.52"

[[record]]
entry_smiles = "Cc1noc(-c2ccc(Cn3c4c(c(-c5ccc(F)cc5)c3-c3ccncc3)C(=O)NCC4)cc2)n1"
property = "pIC50"
result_value = "> 7.52"

[[record]]
entry_smiles = "N#Cc1cccc(F)c1Cn1c2c(c(-c3ccc(F)cc3)c1-c1ccncc1)C(=O)NCC2"
property = "pIC50"
result_value = "> 7.52"

[[record]]
entry_smiles = "COc1ccc(-c2c3c(n(Cc4ccc(F)cc4C#N)c2-c2ccncc2)CCNC3=O)cn1"
property = "pIC50"
result_value = "> 7.52"

